system: SF-295; test: NCI tumour cell line growth inhibition, 48 h
Active and inactive are the calls of the source. Cut-off read from the data, not from the text of the source: active = GI50 up to about 1.1 µM and inactive = higher.
experimental_readout: GI50

compound=CC(C)Cn1cnc2c(SCc3ccc(Cl)cc3Cl)nc(N)nc21 measured_target=SF-295 experimental_readout=GI50 result="23.3 µM (inactive)"
compound=CC(C)(C)CC(C)(C)c1cc2c(O)c(c1)Cc1cc(C(C)(C)CC(C)(C)C)cc(c1O)Cc1cc(C(C)(C)CC(C)(C)C)cc(c1O)Cc1cc(C(C)(C)CC(C)(C)C)cc(c1O)Cc1cc(C(C)(C)CC(C)(C)C)cc(c1O)Cc1cc(C(C)(C)CC(C)(C)C)cc(c1O)Cc1cc(C(C)(C)CC(C)(C)C)cc(c1O)Cc1cc(C(C)(C)CC(C)(C)C)cc(c1O)C2 measured_target=SF-295 experimental_readout=GI50 result="> 100 µM (inactive)"
compound=O=C(NNC(=S)Nc1ccc(Cl)cc1)C12CC3CC(CC(C3)C1)C2 measured_target=SF-295 experimental_readout=GI50 result="5.87 µM (inactive)"
compound="COc1ccc([C@@]23Oc4cc(OC)cc(OC)c4[C@]2(O)[C@H](O)[C@H](C(=O)N(C)C)[C@H]3c2ccccc2)cc1 [ROCAGLAMIDE]" measured_target=SF-295 experimental_readout=GI50 result="0.0045 µM (active)"
compound=O=C(Nc1ccc(Cl)cc1)c1cc(S(=O)(=O)Nc2n[nH]c(Nc3ccc4ccccc4c3)n2)c(SSc2cc(Cl)c(C(=O)Nc3ccc(Cl)cc3)cc2S(=O)(=O)Nc2n[nH]c(Nc3ccc4ccccc4c3)n2)cc1Cl measured_target=SF-295 experimental_readout=GI50 result="20.5 µM (inactive)"
compound=Cc1ccc(-c2nnc(-c3nn(-c4ccccc4)c4nc5ccccc5nc34)o2)cc1 measured_target=SF-295 experimental_readout=GI50 result="15.6 µM (inactive)"
compound=Cc1ccccc1NC(=O)O/N=C(\Cl)C(C)C measured_target=SF-295 experimental_readout=GI50 result="18.9 µM (inactive)"
compound=CC(=O)c1cccc(NCn2nnc3ccccc32)c1 measured_target=SF-295 experimental_readout=GI50 result="> 100 µM (inactive)"
compound=CCOC(=O)C(C)(c1c(C)[nH]c2ccccc12)c1c(C)[nH]c2ccccc12 measured_target=SF-295 experimental_readout=GI50 result="14 µM (inactive)"
compound=COC(=O)c1c(C#N)[nH]c(-c2ccsc2)c1C(=O)OC measured_target=SF-295 experimental_readout=GI50 result="> 100 µM (inactive)"
compound=O=C(c1ccccc1)N1CCc2c([nH]c3ccccc23)C1 measured_target=SF-295 experimental_readout=GI50 result="36.6 µM (inactive)"
compound="COc1cc(C2c3cc4c(cc3[C@@H](Nc3ccc(N5CCOCC5)cc3)C3COC(=O)[C@H]23)OCO4)cc(OC)c1O (stereo partly drawn)" measured_target=SF-295 experimental_readout=GI50 result="0.296 µM (active)"
compound=O=C(N[C@H]1CCC[C@H]1C(=O)Nc1ccc(C(F)(F)F)cc1)OCc1ccccc1 measured_target=SF-295 experimental_readout=GI50 result="> 100 µM (inactive)"
compound="COc1nc(=O)cc(N)n1C1OC(CO)C(O)C1O (stereo not drawn)" measured_target=SF-295 experimental_readout=GI50 result="> 100 µM (inactive)"
compound=Cc1ccnc2nc(-c3cccc4ccccc34)cc(O)c12 measured_target=SF-295 experimental_readout=GI50 result="0.0132 µM (active)"
compound="C=C[C@@]1(C)CC[C@@H]2[C@@]3(C1)O[C@H]3CC1[C@](C)(C(=O)OC)CCC[C@@]12C (stereo partly drawn)" measured_target=SF-295 experimental_readout=GI50 result="15 µM (inactive)"
compound="COC(=O)C(NC(=O)CSc1nnc(COc2ccc(Cl)cc2)n1-c1ccccc1)C(C)C (stereo not drawn)" measured_target=SF-295 experimental_readout=GI50 result="22 µM (inactive)"
compound=O=C(O)c1ccc(-c2nc3cc(Cl)ccc3[nH]2)cc1 measured_target=SF-295 experimental_readout=GI50 result="> 100 µM (inactive)"
compound="COC1C=CC23c4cc5c(cc4C(O)OC2CN(C)C3C1)OCO5 (stereo not drawn)" measured_target=SF-295 experimental_readout=GI50 result="1.69 µM (inactive)"
compound=c1ccc2c(c1)c1ccccc1c1n[se]nc21 measured_target=SF-295 experimental_readout=GI50 result="43.9 µM (inactive)"
compound="c1cnn(C23C4C5C6C4C2C6C53)c1 (stereo not drawn)" measured_target=SF-295 experimental_readout=GI50 result="> 100 µM (inactive)"
compound="C=CCC1([C@H](C)[C@@H](OC(C)=O)c2cc(OC)c(OC)c(OC)c2)C[C@@H](OC)CCC1=O (stereo partly drawn)" measured_target=SF-295 experimental_readout=GI50 result="16 µM (inactive)"
compound=N#C[C@@]12CCCC(=O)[C@@H]1[C@H]1CCC[C@H]12 measured_target=SF-295 experimental_readout=GI50 result="24.7 µM (inactive)"
compound=CCN(CC)CCN1C(=O)c2c(c(-c3ccccc3)c3ccccc3c2-c2ccccc2)C1=O measured_target=SF-295 experimental_readout=GI50 result="71.6 µM (inactive)"
compound="O=c1ccn(CC2(CO)CC(Cc3ccccc3)C2)c(=O)[nH]1 (stereo not drawn)" measured_target=SF-295 experimental_readout=GI50 result="> 100 µM (inactive)"
compound=CC#C[I+]c1ccccc1 measured_target=SF-295 experimental_readout=GI50 result="69.3 µM (inactive)"
compound=Cc1cc(O)c(O)c(Oc2cc(C)cc(O)c2O)c1 measured_target=SF-295 experimental_readout=GI50 result="14.8 µM (inactive)"
compound=COc1cc(Nc2nc3ccc(C(F)(F)F)cc3nc2-c2ccccc2)cc(OC)c1OC measured_target=SF-295 experimental_readout=GI50 result="3.05 µM (inactive)"
compound=NS(=O)(=O)c1ccc(NC(=O)N/N=C/c2ccccc2O)cc1 measured_target=SF-295 experimental_readout=GI50 result="67.8 µM (inactive)"
compound=O=[N+]([O-])c1ccc(N=P(c2ccccc2)(c2ccccc2)c2ccccc2)n2nnnc12 measured_target=SF-295 experimental_readout=GI50 result="29 µM (inactive)"
compound=CC(C)(C)C1=CC(=N/N=c2\scc(-c3ccccc3)n2-c2ccccc2)C=C(C(C)(C)C)C1=O measured_target=SF-295 experimental_readout=GI50 result="> 100 µM (inactive)"
compound="COc1ccc(CC(C)NCC(O)c2ccc(O)c(NC=O)c2)cc1 (stereo not drawn)" measured_target=SF-295 experimental_readout=GI50 result="33.9 µM (inactive)"
compound=CCCCCCSc1nc(COC(=O)NC)c(COC(=O)NC)n1C measured_target=SF-295 experimental_readout=GI50 result="> 100 µM (inactive)"
compound=COc1cccc(-c2cc(O)c3cc(C)cnc3n2)c1 measured_target=SF-295 experimental_readout=GI50 result="0.0405 µM (active)"
compound=O=C1Cc2c(-c3ccccc3)cc(-c3cccc(Cl)c3)nc2-c2ccccc2N1 measured_target=SF-295 experimental_readout=GI50 result="3.56 µM (inactive)"
compound=O=C(/C=C/c1ccc(Cl)cc1)c1nc2ccccc2[nH]1 measured_target=SF-295 experimental_readout=GI50 result="22 µM (inactive)"
compound="CCOP(=O)(OCC)OC1CC(n2cnc3c(N(CC)CC)ncnc32)OC1CO[Si](C)(C)C(C)(C)C (stereo not drawn)" measured_target=SF-295 experimental_readout=GI50 result="16.7 µM (inactive)"
compound="COc1ccc(C2=NN(C(=O)COc3ccc(Cl)cc3)C(O)(c3ccc(Cl)cc3)C2)cc1 (stereo not drawn)" measured_target=SF-295 experimental_readout=GI50 result="> 100 µM (inactive)"

###

system: SF-539; assay: NCI tumour cell line growth inhibition, 48 h
Active and inactive are the calls of the source. Rule as the data show it: active = GI50 up to about 1.1 µM and inactive = higher.
GI50 listing for selected molecules.
experimental_readout: GI50

molecule="COC(=O)C(NC(=O)CSc1nnc(COc2ccc(Cl)cc2)n1-c1ccccc1)C(C)C (stereo not given)" result="31.2 µM (inactive)"
molecule=Cc1ccc2n(c1)cc(-c1ccc(/C=N/NC(=N)N/N=C/c3ccc(-c4cn5cc(C)ccc5[n+]4C)cc3)cc1)[n+]2C result="39.8 µM (inactive)"
molecule=O=S(=O)(N/N=C/c1cccc(Cl)c1Cl)c1ccccc1 result="80 µM (inactive)"
molecule="O=CC1C(Cl)=Nc2nc3ccccc3n2C1c1ccccc1 (stereo not given)" result="18.1 µM (inactive)"
molecule=O=c1[nH]c(=O)n(COCc2ccccc2)c2ccc(Br)cc12 result="> 100 µM (inactive)"

###

GI50 listing for selected molecules.
test system: SN12C; test: NCI tumour cell line growth inhibition, 48 h
Active and inactive are the calls of the source. No stated cut-off is given here; in the data, active = GI50 up to about 1.1 µM and inactive = higher.
experimental_readout: GI50

molecule="O=C1CSC(c2ccccc2O)N1c1nc2cc3sc(N4C(=O)CSC4c4ccccc4O)nc3cc2s1 (stereo not drawn)" experimental_readout=GI50 result="> 40.5 µM (inactive)"
molecule=NN/C(=N\S(=O)(=O)c1cc2ccccc2s1)Nc1ccc(Cl)cc1 experimental_readout=GI50 result="22 µM (inactive)"
molecule=CN(N=O)C(=O)NNC(=O)N(C)N=O experimental_readout=GI50 result="> 100 µM (inactive)"
molecule="COC1C=CC23c4cc5c(cc4C(O)OC2CN(C)C3C1)OCO5 (stereo not drawn)" experimental_readout=GI50 result="2.35 µM (inactive)"
molecule="COC(=O)C1=C(O)C(C(=O)OC)[C@]2(O)[C@@H](C(=O)OC)[C@H]1C[C@@H](c1ccccc1)[C@@H]2C(=O)OC (stereo partly drawn)" experimental_readout=GI50 result="15.7 µM (inactive)"
molecule=Cc1ccc2n(c1)cc(-c1ccc(/C=N/NC(=N)N/N=C/c3ccc(-c4cn5cc(C)ccc5[n+]4C)cc3)cc1)[n+]2C experimental_readout=GI50 result="> 100 µM (inactive)"
molecule="COC(=O)C1CC2(C)C=CC1N(C(=O)OCc1ccccc1)C2 (stereo not drawn)" experimental_readout=GI50 result="> 100 µM (inactive)"
molecule="Cc1c(O)c(OC2OC(CO)C(O)C(O)C2O)cc2c1C=C[C@@H]1[C@@]2(C)C(=O)C[C@]2(C)[C@@H]([C@@](C)(O)C(O)/C=C/C(C)(C)O)[C@H](O)C[C@@]12C (stereo partly drawn)" experimental_readout=GI50 result="> 100 µM (inactive)"
